# System name: PSGL-1(ECD)-hFc1 I121A protein (Sino Biological) (human)
# Sequence (chain, as listed by the source I121A I121A): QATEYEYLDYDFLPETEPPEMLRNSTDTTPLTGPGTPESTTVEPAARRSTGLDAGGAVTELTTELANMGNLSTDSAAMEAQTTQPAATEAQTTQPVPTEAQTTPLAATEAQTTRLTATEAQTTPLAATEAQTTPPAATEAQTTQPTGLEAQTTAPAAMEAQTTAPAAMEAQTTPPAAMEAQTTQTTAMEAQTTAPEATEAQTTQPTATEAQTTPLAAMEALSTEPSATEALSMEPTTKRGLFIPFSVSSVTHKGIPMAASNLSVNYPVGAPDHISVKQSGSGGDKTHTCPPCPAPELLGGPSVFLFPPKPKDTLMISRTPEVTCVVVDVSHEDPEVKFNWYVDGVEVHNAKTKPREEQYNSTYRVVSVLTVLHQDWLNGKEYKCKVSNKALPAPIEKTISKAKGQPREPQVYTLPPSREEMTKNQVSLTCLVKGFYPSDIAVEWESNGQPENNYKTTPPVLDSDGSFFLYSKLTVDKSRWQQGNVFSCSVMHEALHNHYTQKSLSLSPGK
# Protocol details: ELISA; against WT PSGL-1(ECD)-hFc1
Measurement label: EC50/EC50WTprot

## Input Item 19N05 (antibody, V domains shown, From mouse immunisation; only variable domains given) VH: QIQLVQSGPELKKPGETVKISCKASGYTFTTYGMSWVKQAPGKGLKWMGWINTYSGVPTFADDFKGRFAFSLETSASTAYLQINNLKNEDTATFFCARNYYGNHYFDYWGQGTTLTVSS VL: DVQITQSPSYLAASPGETISINCRASNNINKYLAWYQEKPGKTNKLLIYSGSTLQSGIPSRFSGSGSGTDFTLTISSLEPEDFAMYHCQQHNYYPLTFGAGTKLELK has what recorded EC50/EC50WTprot?
## Output 1.39 fold

## Input Further, for 19L04 (antibody, IgG4, V domains shown, From mouse immunisation; only variable domains given) VH: QIQLVQSGPELKKPGETVKISCKASGYTFTTYGMSWVKQAPGKGLKWMGWINTYSGVPTYADDFKGRFAFSLETSASTAYLQINNLKIEDTATYFCARHYYGSHYFDYWGQGTTLTVSS VL: DIMMTQSPSSLAMSVGQKVTLRCKSSQSLLNSSNQKNYLAWYQQKPGQSPKLLVYFASTRESGVPVRFIGSGSGTDFTLTISSMQAEDLADYFCQQHYFSPLTFGAGTKLELK ?
## Output 1.42 fold

## Input Further, for 18F17 (antibody, V domains shown, Non-functional anti-PSGL-1 mAb (Verseau); only variable domains given) VH: QVTLKESGPGILQPSQTLSLTCSFSGFSLSTFGMGVGWIRQPSGKGLEWLAHIWWDDDKYYNPALKSRLTISKDTSKNQVFLKIANVDTADTATYYCAIYYDYGVGFDYWGQGTTLTVSS VL: DIVMTQAAPSVPVTPGESVSISCRSSKSLLHSNGYTFLYWFLQRPGQSPQLLIYRMSNLASGVPDRFSGSGSGTAFTLRISRVEAEDVGVYYCMQHLEYPFTFGTGTKLEIK ?
## Output 0.68 fold

## Input Further, for 15A7 (antibody, V domains shown, Control mAb, recombinant; also called h15A7; 15A17) VH: EVQLVESGGGLVQPGGSLRLSCAASGFTFSSFGMHWVRQAPGKGLEWVAYINGGSSTIFYANAVKGRFTISRDNAKNTLYLQMNSLRAEDTAVYYCARYASYGGGAMDYWGQGTLVTVSS VL: DIQMTQSPSSLSASVGDRVTITCRSSQSIVHNDGNTYFEWYQQKPGKAPKLLIYKVSNRFSGVPSRFSGSGSGTHFTLTISSLQPEDFATYYCFQGSYVPLTFGQGTKVEIK ?
## Output ~60 fold

Source of measurements: patent US20220396632A1
